Field: pIC50. Provide a value for each of the compounds that follow.
# measurement.target: human CNT2 (Homo sapiens, UniProt O43868, I160M/P22L/S45C)
# Sequence (O43868 1-658 P22L/S45C/I160M): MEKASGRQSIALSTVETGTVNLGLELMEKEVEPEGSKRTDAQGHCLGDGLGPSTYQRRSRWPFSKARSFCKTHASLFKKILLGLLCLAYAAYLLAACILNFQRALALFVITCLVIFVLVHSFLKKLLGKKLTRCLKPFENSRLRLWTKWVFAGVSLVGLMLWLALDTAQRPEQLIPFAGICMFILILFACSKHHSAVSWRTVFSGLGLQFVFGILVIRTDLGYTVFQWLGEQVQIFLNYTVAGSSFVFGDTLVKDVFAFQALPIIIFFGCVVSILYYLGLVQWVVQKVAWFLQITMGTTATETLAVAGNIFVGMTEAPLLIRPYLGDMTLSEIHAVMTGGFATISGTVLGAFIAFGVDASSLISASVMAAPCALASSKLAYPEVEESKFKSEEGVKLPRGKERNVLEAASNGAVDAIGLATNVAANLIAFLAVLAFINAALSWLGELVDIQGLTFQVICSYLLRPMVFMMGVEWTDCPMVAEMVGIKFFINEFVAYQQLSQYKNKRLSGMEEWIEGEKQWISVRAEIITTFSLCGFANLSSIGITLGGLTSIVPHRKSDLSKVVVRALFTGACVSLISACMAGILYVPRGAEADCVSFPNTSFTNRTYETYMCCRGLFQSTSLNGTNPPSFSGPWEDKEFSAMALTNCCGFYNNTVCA
# experiment: Inhibitory activity against uptake of adenosine through human CNT2
# condition.set: COS-7 cells transiently expressing human CNT2; adenosine 10 μM; NBMPR 10 μM; incubation 30 minutes at 37° C.
Give bare numbers, as −log10 of the molar value.

Consider the worked cases shown below.
C[N+](C)(CCO)CCCOc1cccc(CNc2nc3ccccc3n2[C@@H]2O[C@H](CO)[C@@H](O)[C@H]2O)c1 [Example 93] = 6.76
CCCCOc1ccc(CNc2nc3ccccc3n2[C@@H]2O[C@H](CO)[C@@H](O)[C@H]2O)cc1OCCCCO [Example 37] = 6.67
NC(=O)C1CCN(CCCOc2cccc(CNc3nc4ccccc4n3[C@@H]3O[C@H](CO)[C@@H](O)[C@H]3O)c2)CC1 [Example 89] = 7.26
NCCCOc1cc(CNc2nc3ccccc3n2[C@@H]2O[C@H](CO)[C@@H](O)[C@H]2O)ccc1-c1ccccc1 [Example 51] = 8.05
OCCCCOc1cc(CNc2nc3ccccc3n2[C@@H]2O[C@H](CO)[C@@H](O)[C@H]2O)ccc1-c1ccccc1 [Example 28] = 7.34
CCOc1ccc(CNc2nc3ccccc3n2[C@@H]2O[C@H](CO)[C@@H](O)[C@H]2O)cc1OCCCCO [Example 34] = 6.98
CN(C)CCCOc1cccc(CNc2nc3ccccc3n2[C@@H]2O[C@H](CO)[C@@H](O)[C@H]2O)c1 [Example 90] = 6.74

Switching to the query record.
# input Fill in: pIC50 of CCCOc1ccc(CNc2nc3ccccc3n2[C@@H]2O[C@H](CO)[C@@H](O)[C@H]2O)cc1OCCCCO [Example 36] is ___
# output 6.82
